MEASURED_TARGET: human GCG receptor (human, UniProt P47871 26-477)
Sequence (P47871 26-477): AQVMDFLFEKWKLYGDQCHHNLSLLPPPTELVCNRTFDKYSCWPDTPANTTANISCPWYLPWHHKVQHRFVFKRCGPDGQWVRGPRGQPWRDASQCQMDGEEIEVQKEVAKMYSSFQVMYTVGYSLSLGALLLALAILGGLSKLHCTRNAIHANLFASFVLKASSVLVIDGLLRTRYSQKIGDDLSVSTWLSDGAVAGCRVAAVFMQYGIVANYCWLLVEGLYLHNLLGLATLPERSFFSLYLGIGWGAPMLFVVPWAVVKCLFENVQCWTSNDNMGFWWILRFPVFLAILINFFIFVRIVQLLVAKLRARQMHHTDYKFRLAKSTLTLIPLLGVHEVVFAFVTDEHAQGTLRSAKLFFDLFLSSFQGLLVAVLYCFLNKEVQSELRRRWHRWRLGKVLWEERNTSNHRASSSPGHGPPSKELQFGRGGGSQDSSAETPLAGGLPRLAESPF
TEST: cell-based or functional assay
Bridges are numbered along the chain shown (N, C = ends). Where no end group is shown, it is not given here. [ ]: non-standard residue; d: D form. The star is where a group is joined. Acetyl(2-(4-imidazolyl)) = O=C(Cc1c[nH]cn1)*; Aib = CC(C)(N)C(=O)O
The binders listed here are annotated with their In vitro activity relative to native peptide (%) vs. Glucagon.
MEASURED_PARAMETER: In vitro activity relative to native peptide (%) vs. Glucagon

In [3]: df
Out[3]:
                                     binder  measured
0  H[Aib]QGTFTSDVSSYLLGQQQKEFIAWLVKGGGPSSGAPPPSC [triple agonist of SEQ ID NO: 5]    < 0.1%
1  H[Aib]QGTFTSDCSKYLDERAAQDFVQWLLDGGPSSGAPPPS [triple agonist of SEQ ID NO: 25]      0.1%
2  H[Aib]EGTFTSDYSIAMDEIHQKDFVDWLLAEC (bridge 16-20) [triple agonist of SEQ ID NO: 54]      1.4%
3  H[Aib]QGTFTSDYSKYLDERACQDFVQWLLDQGGPSSGAPPPS [triple agonist of SEQ ID NO: 27]      0.8%
4  {Acetyl(2-(4-imidazolyl))}-[Aib]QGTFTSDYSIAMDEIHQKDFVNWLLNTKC (bridge 15-19) [triple agonist of SEQ ID NO: 94]    < 0.1%
5  H[Aib]QGTFTSDVSSYLDGQAAKEFVAWLLKGC [triple agonist of SEQ ID NO: 6]    < 0.1%

Provenance of the data: patent US20230302148A1
